Here the recorded pIC50 is given for each entry.
- assayedSystem: Mitogen-activated protein kinase 14 (Homo sapiens, UniProt Q16539)
- Sequence (Q16539 whole entry): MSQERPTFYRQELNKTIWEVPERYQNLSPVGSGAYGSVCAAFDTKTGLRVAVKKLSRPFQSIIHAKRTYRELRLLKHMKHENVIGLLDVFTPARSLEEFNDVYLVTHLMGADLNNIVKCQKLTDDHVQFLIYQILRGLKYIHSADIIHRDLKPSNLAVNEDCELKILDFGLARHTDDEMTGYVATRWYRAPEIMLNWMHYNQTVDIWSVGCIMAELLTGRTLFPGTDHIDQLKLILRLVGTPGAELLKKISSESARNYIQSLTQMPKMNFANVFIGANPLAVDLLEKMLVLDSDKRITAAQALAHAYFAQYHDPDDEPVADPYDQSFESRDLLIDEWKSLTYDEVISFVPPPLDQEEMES
- protocolDescription: In vitro inhibitory activity against Mitogen-activated protein kinase p38
Kindly note that pIC50 refers to -log10 of the concentration in mol/L and answer with the value alone.

These solved cases illustrate the format of a correct answer.
c1ccc(-c2c[nH]nc2-c2ccnc3ccccc23)nc1
5.11
Cc1cccc(-c2n[nH]cc2-c2ccnc3ccccc23)n1
7.11
Clc1ccc(-c2n[nH]cc2-c2ccnc3ccccc23)nc1
5.64

--- query ---
Given the entry "Fc1ccc(-c2c[nH]nc2-c2ccccn2)cc1" , report its measured pIC50. 5.17

---

- assayedSystem: UniProtKB P36897
- protocolDescription: In vitro inhibition of transforming growth factor- beta dependent luciferase production in mink lung cells (p3TP Lux)
- Assay type: functional, cell-based
Here the recorded IC50 is given for each entry.

These solved cases illustrate the format of a correct answer.
c1ccc(Cn2cc(-c3ccnc4ccccc34)c(-c3ccccn3)n2)cc1
399 nM
Cc1cccc(-c2n[nH]cc2-c2ccccc2)n1
3370 nM
Cc1cccc(-c2n[nH]c(C)c2-c2ccnc3ccccc23)n1
24 nM
Brc1cccc(-c2n[nH]cc2-c2ccnc3ccccc23)n1
2.9 nM
Cc1cccc(-c2n[nH]cc2-c2ccc(F)cc2)n1
139 nM

Given the entry "c1ccc(-c2c[nH]nc2-c2ccccn2)cc1" , report its measured IC50. > 9000 nM

---

- assayedSystem: TGF-beta receptor type-1 (Homo sapiens)
- Sequence (P36897 whole entry): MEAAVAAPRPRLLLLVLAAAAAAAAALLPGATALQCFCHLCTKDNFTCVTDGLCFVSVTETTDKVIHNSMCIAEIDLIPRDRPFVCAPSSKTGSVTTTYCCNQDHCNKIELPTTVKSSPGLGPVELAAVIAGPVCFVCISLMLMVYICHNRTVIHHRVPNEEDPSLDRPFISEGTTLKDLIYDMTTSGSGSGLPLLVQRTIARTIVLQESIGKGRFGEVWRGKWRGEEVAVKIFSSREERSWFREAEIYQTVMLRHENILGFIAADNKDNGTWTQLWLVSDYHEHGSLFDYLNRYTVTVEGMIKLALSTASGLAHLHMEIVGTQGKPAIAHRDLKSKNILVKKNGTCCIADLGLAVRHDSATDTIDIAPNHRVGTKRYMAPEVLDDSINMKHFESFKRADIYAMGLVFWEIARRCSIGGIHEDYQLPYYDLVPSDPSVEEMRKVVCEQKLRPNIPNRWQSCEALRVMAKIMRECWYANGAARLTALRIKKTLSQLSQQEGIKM
- protocolDescription: In vitro inhibitory activity against human Transforming growth factor beta-1 receptor kinase (TGF-beta RIK)
Here the recorded pIC50 is given for each entry.
Kindly note that pIC50 refers to -log10 of the concentration in mol/L and answer with the value alone.

These solved cases illustrate the format of a correct answer.
c1ccc(Cn2cc(-c3ccnc4ccccc34)c(-c3ccccn3)n2)cc1
6.43
Cc1cccc(-c2[nH]ncc2-c2ccc(Cl)cc2)n1
7.24
c1ccc(-c2n[nH]c(C3CC3)c2-c2ccnc3ccccc23)nc1
6.69
Brc1cccc(-c2n[nH]cc2-c2ccnc3ccccc23)n1
7.51
Cc1cccc(-c2n[nH]cc2-c2ccnc3ccccc23)n1
7.47
Fc1ccc(-c2c[nH]nc2-c2ccccn2)cc1
6.56

Any idea what pIC50 came out for "Cc1cccc(-c2n[nH]cc2-c2ccc(F)cc2)n1" on TGF-beta receptor type-1 (Homo sapiens)? 7.15

Any idea what pIC50 came out for "Cc1cccc(-c2n[nH]cc2-c2ccccc2)n1" on TGF-beta receptor type-1 (Homo sapiens)? 6.27

Any idea what pIC50 came out for "c1ccc(-c2n[nH]cc2-c2ccnc3ccccc23)cc1" on TGF-beta receptor type-1 (Homo sapiens)? 6.42
